# study.conditions: 323.15 K; 101.3 kPa; Liquid; Vibrating tube method
recorded.metric: mass density (kg/m3)
Give bare numbers, in kg/m3.

// solved cases for mass density follow
>>> data_value("CCn1cc[n+](C)c1C.O=S(=O)([N-]S(=O)(=O)C(F)(F)F)C(F)(F)F")
1467.2
>>> data_value("COC(=O)OC [dimethyl carbonate]")
1029.6
>>> data_value("CCCCn1cc[n+](C)c1C.O=S(=O)([N-]S(=O)(=O)C(F)(F)F)C(F)(F)F")
1395.6

Shifting focus to the compound that follows.
Request: # mass density lookup, item CCOC(=O)OCC [diethyl carbonate]
Response: 940.9

These data points were gathered from the NIST ThermoML archive (doi:10.1016/j.jct.2018.10.015).
